# assay target: Bifunctional dihydrofolate reductase-thymidylate synthase (Plasmodium falciparum K1, UniProt P13922, C59R/I164L/S108N)
# Sequence (P13922 whole entry, looked up, stated change not applied): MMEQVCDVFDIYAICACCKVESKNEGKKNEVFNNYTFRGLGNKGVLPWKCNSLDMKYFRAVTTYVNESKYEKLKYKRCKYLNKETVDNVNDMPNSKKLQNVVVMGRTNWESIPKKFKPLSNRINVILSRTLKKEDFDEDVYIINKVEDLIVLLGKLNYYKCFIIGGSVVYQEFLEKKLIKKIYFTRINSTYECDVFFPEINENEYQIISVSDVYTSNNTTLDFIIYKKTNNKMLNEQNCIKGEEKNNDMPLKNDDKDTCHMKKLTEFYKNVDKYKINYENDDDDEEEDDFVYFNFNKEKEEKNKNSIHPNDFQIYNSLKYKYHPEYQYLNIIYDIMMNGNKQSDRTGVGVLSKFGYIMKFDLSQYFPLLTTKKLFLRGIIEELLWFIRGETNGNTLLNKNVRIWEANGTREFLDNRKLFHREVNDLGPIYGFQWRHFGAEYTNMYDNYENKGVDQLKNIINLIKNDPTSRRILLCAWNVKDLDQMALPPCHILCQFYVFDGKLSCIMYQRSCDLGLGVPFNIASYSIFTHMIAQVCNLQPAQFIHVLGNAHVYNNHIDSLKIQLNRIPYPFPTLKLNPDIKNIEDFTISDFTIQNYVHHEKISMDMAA
# measurement description: Binding affinity towards mutant dihydrofolate reductase (C59R+S108N+I164L DHFR) of Plasmodium falciparum
reported property: log10 of Ki (log10 of the value in nM)
A value of 2 here means Ki of 100 in nM, since values are log10.

| compound | log10 of Ki |
| --- | --- |
| COC(=O)CCCc1nc(N)nc(N)c1-c1cccc(Cl)c1 | 0.26 |
| COc1ccc(CCCc2nc(N)nc(N)c2-c2cccc(Cl)c2)cc1 | 0.46 |
| NC1=NC(c2cccc(Oc3ccc(Cl)cc3)c2)N(c2cccc(Cl)c2)C(N)=N1 (stereo unspecified) | 0.71 |

Ask | Determine from records and report log10 of Ki for `CC(=O)OCCCc1nc(N)nc(N)c1-c1cccc(Cl)c1`
Reply | 0.51

Ask | Determine from records and report log10 of Ki for CCCOc1ccc(C2N=C(N)N=C(N)N2c2cccc(Cl)c2)cc1 (stereo unspecified)
Reply | -0.30

Ask | Determine from records and report log10 of Ki for `Nc1nc(N)c(-c2cccc(Cl)c2)c(CCCO)n1`
Reply | 1.46

###

# assay target: Bifunctional dihydrofolate reductase-thymidylate synthase (Plasmodium falciparum K1, UniProt P13922, C59R/I164L/S108N)
# measurement description: Binding affinity towards mutant dihydrofolate reductase (C59R+S108N+I164L DHFR) of Plasmodium falciparum
Class definitions on Ki: low: < 0.8 nM; moderate: ≥ 0.8 nM and < 4 nM; high: ≥ 4 nM

| compound | answer label |
| --- | --- |
| CCCCCCCC1N=C(N)N=C(N)N1c1cccc(Cl)c1 (centres undefined) | low |

Ask | Class? Entry: `COC(=O)CCCc1nc(N)nc(N)c1-c1ccc(Cl)cc1`
Reply | high

Ask | Class? Entry: NC1=NC(c2ccc(Oc3ccccc3)cc2)N(c2cccc(Cl)c2)C(N)=N1 (centres undefined)
Reply | low

Ask | Class? Entry: NC1=NC(c2cccc(Oc3cccc(C(F)(F)F)c3)c2)N(c2cccc(Cl)c2)C(N)=N1 (centres undefined)
Reply | low

Ask | Class? Entry: CCCCCCC1(C)N=C(N)N=C(N)N1c1ccc(Cl)cc1 (centres undefined)
Reply | high

###

# assay target: Bifunctional dihydrofolate reductase-thymidylate synthase (Plasmodium falciparum K1, UniProt P13922, C59R/I164L/N51I/S108N)
# Sequence (P13922 whole entry, looked up, stated change not applied): as above
# measurement description: Binding affinity towards mutant dihydrofolate reductase (N51I+C59R+S108N+I164L DHFR) of Plasmodium falciparum
Please assign rule not met whenever Ki is at or above 200 nM, and rule met whenever it is below.

Examples with answers:
| molecule | answer label |
| --- | --- |
| NC1=NC(c2ccc(Oc3ccccc3)cc2)N(c2ccc(Cl)cc2)C(N)=N1 (configuration not stated) | rule not met |
| NC1=NC(c2cccc(Oc3ccc(Cl)cc3)c2)N(c2cccc(Cl)c2)C(N)=N1 (configuration not stated) | rule met |
| Nc1nc(N)c(-c2cccc(Cl)c2)c(CCCO)n1 | rule met |
| NC1=NC(c2cccc(OCc3ccccc3)c2)N(c2cccc(Cl)c2)C(N)=N1 (configuration not stated) | rule met |
| CCCCCCC1(C)N=C(N)N=C(N)N1c1ccc(Cl)cc1 (configuration not stated) | rule met |

Ask | Please let me know if `Nc1nc(N)c(-c2cccc(Cl)c2)c(CCCOC(=O)OCc2ccccc2)n1` shows Ki below 200 nM.
Reply | rule met

Ask | Please let me know if `Nc1nc(N)c(-c2cccc(Cl)c2)c(CCCOC(=O)c2ccccc2)n1` shows Ki below 200 nM.
Reply | rule met

Ask | Please let me know if NC1=NC(c2ccccc2)N(c2ccc(Cl)cc2)C(N)=N1 (configuration not stated) shows Ki below 200 nM.
Reply | rule not met

Ask | Please let me know if `Nc1nc(N)c(-c2ccccc2)c(CCCO)n1` shows Ki below 200 nM.
Reply | rule not met

Ask | Please let me know if `CC(=O)OCCCc1nc(N)nc(N)c1-c1cccc(Cl)c1` shows Ki below 200 nM.
Reply | rule met

Ask | Please let me know if NC1=NC(c2cccc(OCc3ccccc3)c2)N(c2ccc(Cl)cc2)C(N)=N1 (configuration not stated) shows Ki below 200 nM.
Reply | rule not met

Ask | Please let me know if `Nc1nc(N)c(-c2ccccc2)c(CCCc2ccccc2)n1` shows Ki below 200 nM.
Reply | rule met

Ask | Please let me know if NC1=NC(c2cccc(Oc3cccc(C(F)(F)F)c3)c2)N(c2cccc(Cl)c2)C(N)=N1 (configuration not stated) shows Ki below 200 nM.
Reply | rule met

Ask | Please let me know if `COC(=O)CCCc1nc(N)nc(N)c1-c1ccccc1` shows Ki below 200 nM.
Reply | rule met
